Provenance of the data: patent US12157746B2

- system: human TLR7 (Homo sapiens, UniProt Q9NYK1)
- Sequence (Q9NYK1 27-1049): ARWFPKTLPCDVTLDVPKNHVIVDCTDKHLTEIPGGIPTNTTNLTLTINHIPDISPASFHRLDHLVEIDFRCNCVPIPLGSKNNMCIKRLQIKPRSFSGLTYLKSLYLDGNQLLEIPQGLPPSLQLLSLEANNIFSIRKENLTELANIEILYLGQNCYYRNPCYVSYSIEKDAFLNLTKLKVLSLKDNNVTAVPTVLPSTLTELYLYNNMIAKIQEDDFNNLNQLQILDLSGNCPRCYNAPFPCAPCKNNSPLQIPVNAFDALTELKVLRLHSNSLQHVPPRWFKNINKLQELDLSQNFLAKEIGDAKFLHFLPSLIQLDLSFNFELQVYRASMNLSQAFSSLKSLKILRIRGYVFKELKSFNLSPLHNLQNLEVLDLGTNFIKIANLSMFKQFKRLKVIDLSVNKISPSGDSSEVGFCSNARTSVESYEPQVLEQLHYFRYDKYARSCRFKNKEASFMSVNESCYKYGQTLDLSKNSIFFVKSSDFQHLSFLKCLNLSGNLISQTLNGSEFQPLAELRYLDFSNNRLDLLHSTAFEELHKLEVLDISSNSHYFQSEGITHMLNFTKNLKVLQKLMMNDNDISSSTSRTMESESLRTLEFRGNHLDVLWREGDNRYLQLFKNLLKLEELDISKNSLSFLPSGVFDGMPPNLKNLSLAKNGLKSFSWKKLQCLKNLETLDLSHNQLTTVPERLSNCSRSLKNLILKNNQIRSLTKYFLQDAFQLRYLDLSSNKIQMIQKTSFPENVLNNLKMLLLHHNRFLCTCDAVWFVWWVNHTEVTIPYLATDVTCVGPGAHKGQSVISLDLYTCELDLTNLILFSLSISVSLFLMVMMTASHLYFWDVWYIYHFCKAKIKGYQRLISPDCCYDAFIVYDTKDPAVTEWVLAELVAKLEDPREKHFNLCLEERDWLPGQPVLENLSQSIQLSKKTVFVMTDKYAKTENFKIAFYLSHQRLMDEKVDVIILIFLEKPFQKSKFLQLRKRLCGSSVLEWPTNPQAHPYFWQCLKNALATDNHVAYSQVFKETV
- test.name: HEK293-Blue-hTLR-7 cells assay
- condition.parameters: HEK293-Blue-hTLR7 cells, R848 stimulation, 20 hrs, SEAP reporter; read-out: HEK/hTLR7 IC50
pIC50: −log10 of the molar value.
Answer each item with its documented pIC50.

smi=C[C@@H]1CN(c2ccc(C#N)c3ncccc23)C[C@@H]2c3ccc(N4CCN[C@H](CO)C4)cc3CN12 obs_value="> 8.49"
smi=CO[C@H]1CNCC[C@H]1Nc1ccc2c(c1)CN1[C@H](C)CN(c3ccc(C#N)c4ncccc34)C[C@H]21 obs_value="> 8.49"

We now examine a further molecule.
Problem: Field request: pIC50 | item: C[C@@H]1CN(c2ccc(C#N)c3ncccc23)C[C@@H]2c3ccc(OCCN(C)C)cc3CN12
Result: > 8.49
